tested on: CCRF-CEM; experiment: Antiproliferative activity against human CEM cells after 72 hrs; type: cell-based

mol	relation.operator	IC50, µg/mL
CNC(=O)OC[C@H]1O[C@@H](n2cnc3c(NC(=O)Nc4cccc(I)c4)ncnc32)[C@H](O[Si](C)(C)C(C)(C)C)[C@@H]1O[Si](C)(C)C(C)(C)C	>	200
CNC(=O)NC[C@H]1O[C@@H](n2cnc3c(NC(=O)NCc4ccccc4)ncnc32)[C@H](O[Si](C)(C)C(C)(C)C)[C@@H]1O[Si](C)(C)C(C)(C)C	=	8.3
CNC(=O)NC[C@H]1O[C@@H](n2cnc3c(NC(=O)Nc4ccc(Cl)cc4)ncnc32)[C@H](O[Si](C)(C)C(C)(C)C)[C@@H]1O[Si](C)(C)C(C)(C)C	=	14
CNC(=O)NC[C@H]1O[C@@H](n2cnc3c(NC(=O)Nc4ccccc4)ncnc32)[C@H](O[Si](C)(C)C(C)(C)C)[C@@H]1O[Si](C)(C)C(C)(C)C	=	8.3
CNC(=O)OC[C@H]1O[C@@H](n2cnc3c(NC(=O)Nc4ccc([N+](=O)[O-])cc4)ncnc32)[C@H](O[Si](C)(C)C(C)(C)C)[C@@H]1O[Si](C)(C)C(C)(C)C	=	15
CCCCCCNC(=O)Nc1ncnc2c1ncn2[C@@H]1O[C@H](CNC(=O)NC)[C@@H](O[Si](C)(C)C(C)(C)C)[C@H]1O[Si](C)(C)C(C)(C)C	=	68
CNC(=O)NC[C@H]1O[C@@H](n2cnc3c(NC(=O)Nc4cccc(I)c4)ncnc32)[C@H](O[Si](C)(C)C(C)(C)C)[C@@H]1O[Si](C)(C)C(C)(C)C	=	182
CNC(=O)OC[C@H]1O[C@@H](n2cnc3c(NC(=O)NC4CCCCC4)ncnc32)[C@H](O[Si](C)(C)C(C)(C)C)[C@@H]1O[Si](C)(C)C(C)(C)C	=	175
CCCNC(=O)Nc1ncnc2c1ncn2[C@@H]1O[C@H](CNC(=O)NC)[C@@H](O[Si](C)(C)C(C)(C)C)[C@H]1O[Si](C)(C)C(C)(C)C	=	4.4
CNC(=O)OC[C@H]1O[C@@H](n2cnc3c(NC(=O)NCc4ccccc4)ncnc32)[C@H](O[Si](C)(C)C(C)(C)C)[C@@H]1O[Si](C)(C)C(C)(C)C	>	200
CNC(=O)NC[C@H]1O[C@@H](n2cnc3c(NC(=O)Nc4ccc(OC)cc4)ncnc32)[C@H](O[Si](C)(C)C(C)(C)C)[C@@H]1O[Si](C)(C)C(C)(C)C	=	5.2
CNC(=O)NC[C@H]1O[C@@H](n2cnc3c(NC(=O)Nc4ccc(I)cc4)ncnc32)[C@H](O[Si](C)(C)C(C)(C)C)[C@@H]1O[Si](C)(C)C(C)(C)C	=	68
